System: Mus musculus
Test: Anti-inflammatory activity in carrageenan-induced Mus musculus Swiss albino (mouse) paw edema model assessed as paw swelling at 100 mg/kg, sc administered 30 min prior to carrageenan injection measured after 180 min (reference value: 51.0 +/-3.0 x10'-2 mm)
Format: functional
Conditions: route subcutaneous
Measured Activity, listed per entry for reference.
Kindly answer with a numeric value in ×10⁻² mm, unit omitted.

For reference, reported Activity for COc1ccc(CN2CCN(C(=O)c3cc(-c4ccc(C)cc4)nn3Cc3ccccc3)CC2)c(OC)c1OC stands at 28

---

System: MCF7
Test: Anticancer activity against Homo sapiens (human) MCF7 cells assessed as cell viability at 50 uM after 24 hr by MTT assay (reference value: 100 +/-2.74%)
Assay type: functional
Settings: MCF7, 24 h, read-out: Activity
Checkbox rule: viability at 50 µM lower than 80% = True; viability at 50 µM not lower than 80% = False.

[
  {
    "givenSmiles": "Cc1ccc(-c2cc(C(=O)Oc3ccc(Oc4ccc(C(F)(F)F)cc4)cc3)n(Cc3ccccc3)n2)cc1",
    "className": "True"
  },
  {
    "givenSmiles": "Cc1ccc(-c2cc(C(=O)N3CCN(Cc4ccc(C(C)C)cc4)CC3)n(Cc3ccccc3)n2)cc1",
    "className": "False"
  },
  {
    "givenSmiles": "Cc1ccc(-c2cc(C(=O)NCc3cccnc3)n(Cc3ccccc3)n2)cc1",
    "className": "False"
  }
]

Given CCOC(=O)C1CCN(C(=O)c2cc(-c3ccc(C)cc3)nn2Cc2ccccc2)CC1 , is recorded viability at 50 µM strictly lower than 80%? True

Determine if Cc1ccc(-c2cc(C(=O)Oc3ccc(C(C)(C)C)cc3)nn2Cc2ccccc2)cc1 shows viability at 50 µM strictly lower than 80%. False

Criterion: viability at 50 µM strictly below 80%. Is it met by Cc1ccc(-c2cc(C(=O)Oc3ccc(C(C)(C)C)cc3)n(Cc3ccccc3)n2)cc1 ? False

Lab note: viability at 50 µM threshold 80%. Does this molecule come in strictly under it? Cc1ccc(-c2cc(C(=O)N3CCN(Cc4ccc(C(C)C)cc4)CC3)nn2Cc2ccccc2)cc1 True

---

System: MCF7
Assay: Anticancer activity against Homo sapiens (human) MCF7 cells assessed as cell viability at 50 uM after 48 hr by MTT assay (100 +/-5.08%)
Assay type: functional
Conditions: MCF7, 48 h, read-out: Activity
endpointName: viability at 50 µM (%)
Reply numerically in %, unit not repeated.

Worked cases, viability at 50 µM given:
[
  {
    "givenSmiles": "Cc1ccc(-c2cc(C(=O)Oc3ccc(Oc4ccc(C(F)(F)F)cc4)cc3)n(Cc3ccccc3)n2)cc1",
    "assayedTarget": "MCF7",
    "viability at 50 µM [%]": 107
  },
  {
    "givenSmiles": "Cc1ccc(-c2cc(C(=O)Oc3ccc(C(C)C)cc3)nn2Cc2ccccc2)cc1",
    "assayedTarget": "MCF7",
    "viability at 50 µM [%]": 82.6
  },
  {
    "givenSmiles": "Cc1ccc(-c2cc(C(=O)Oc3ccc(C(C)(C)C)cc3)nn2Cc2ccccc2)cc1",
    "assayedTarget": "MCF7",
    "viability at 50 µM [%]": 92.4
  },
  {
    "givenSmiles": "CCOC(=O)C1CCN(C(=O)c2cc(-c3ccc(C)cc3)n(Cc3ccccc3)n2)CC1",
    "assayedTarget": "MCF7",
    "viability at 50 µM [%]": 94.5
  },
  {
    "givenSmiles": "Cc1ccc(-c2cc(C(=O)N3CCN(Cc4ccc(C(C)C)cc4)CC3)nn2Cc2ccccc2)cc1",
    "assayedTarget": "MCF7",
    "viability at 50 µM [%]": 56.7
  },
  {
    "givenSmiles": "Cc1ccc(-c2cc(C(=O)N3CCN(Cc4ccc(C(C)C)cc4)CC3)n(Cc3ccccc3)n2)cc1",
    "assayedTarget": "MCF7",
    "viability at 50 µM [%]": 66.6
  }
]

molecule Cc1ccc(-c2cc(C(=O)Oc3ccc(C(C)C)cc3)n(Cc3ccccc3)n2)cc1 , viability at 50 µM observed: 90.5

// sample CCOC(=O)C1CCN(C(=O)c2cc(-c3ccc(C)cc3)nn2Cc2ccccc2)CC1 , its viability at 50 µM was 88.2

The recorded viability at 50 µM for Cc1ccc(-c2cc(C(=O)Oc3ccc(-n4ccnc4)cc3)n(Cc3ccccc3)n2)cc1 is 52.4

For reference, reported viability at 50 µM for Cc1ccc(-c2cc(C(=O)NCc3cccnc3)n(Cc3ccccc3)n2)cc1 stands at 100

# viability at 50 µM (molecule: CCCCCCCOc1ccc(OC(=O)c2cc(-c3ccc(C)cc3)nn2Cc2ccccc2)cc1 ) is 97.6

Given item Cc1ccc(-c2cc(C(=O)Oc3ccc(C(C)(C)C)cc3)n(Cc3ccccc3)n2)cc1 , the value recorded as its viability at 50 µM is 94.9

---

Test system: Mus musculus
Test: Analgesic activity in Mus musculus Swiss albino (mouse) assessed as inhibition of p-benzoquinone-induced abdominal writhing at 100 mg/kg, sc administered 30 min prior to PBQ injection measured after 5 min for 15 min
Assay type: functional, Abdomen
Design: scale not given: the % may be the effect or the level left
Details: route subcutaneous
endpointName: Activity
Report field: quantity (unit follows the number).

Record Cc1ccc(-c2cc(C(=O)Oc3ccc(C(C)(C)C)cc3)n(Cc3ccccc3)n2)cc1 , field Activity: 10.9%

The compound identified as COc1ccc(CN2CCN(C(=O)c3cc(-c4ccc(C)cc4)nn3Cc3ccccc3)CC2)c(OC)c1OC registered its Activity at 53%

Reported Activity of CCOC(=O)C1CCN(C(=O)c2cc(-c3ccc(C)cc3)n(Cc3ccccc3)n2)CC1 : 83.2%

Query Cc1ccc(-c2cc(C(=O)Oc3ccc(C(C)C)cc3)nn2Cc2ccccc2)cc1 yields Activity of 45.7%

Per the record, Cc1ccc(-c2cc(C(=O)Oc3ccc(C(C)C)cc3)n(Cc3ccccc3)n2)cc1 has Activity of 33%

Measured Activity, Cc1ccc(-c2cc(C(=O)Oc3ccc(-n4ccnc4)cc3)n(Cc3ccccc3)n2)cc1 : 14.9%

Per the records, this compound ( Cc1ccc(-c2cc(C(=O)Oc3ccc(C(C)(C)C)cc3)nn2Cc2ccccc2)cc1 ) has Activity equal to 73.4%

---

Test system: HL-60
Assay: Anticancer activity against Homo sapiens (human) HL60 cells assessed as inhibition of cell viability by MTT assay
Type: functional, cell-based
endpointName: pIC50
Remember the convention: pIC50 equals -log10 of concentration in molar.

Form: item Cc1ccc(-c2cc(C(=O)N3CCN(Cc4ccc(C(C)C)cc4)CC3)nn2Cc2ccccc2)cc1 ; test system HL-60; pIC50: 4.61

---

Tested on: Mus musculus
Assay: Anti-inflammatory activity in carrageenan-induced Mus musculus Swiss albino (mouse) paw edema model assessed as paw swelling at 100 mg/kg, sc administered 30 min prior to carrageenan injection measured after 180 min (reference value: 51.0 +/-3.0 x10'-2 mm)
Type: functional
Conditions: route subcutaneous
Class True: Activity at least 40 ×10⁻² mm. Class False: Activity below 40 ×10⁻² mm.

Confirm if Activity reported for the compound CCCCCCCOc1ccc(OC(=O)c2cc(-c3ccc(C)cc3)nn2Cc2ccccc2)cc1 is 40 ×10⁻² mm or above. True

Check if Activity >= 40 ×10⁻² mm (inclusive). Item: CCOC(=O)C1CCN(C(=O)c2cc(-c3ccc(C)cc3)n(Cc3ccccc3)n2)CC1 True

Quick check, Activity >= 40 ×10⁻² mm? Cc1ccc(-c2cc(C(=O)NCc3cccnc3)n(Cc3ccccc3)n2)cc1 True

Hello, I need to know if Cc1ccc(-c2cc(C(=O)Oc3ccc(C(C)(C)C)cc3)n(Cc3ccccc3)n2)cc1 has measured Activity not below 40 ×10⁻² mm. Thanks! False

---

# Activity per record follows
Test system: Mus musculus
Assay: Anti-inflammatory activity in carrageenan-induced Mus musculus Swiss albino (mouse) paw edema model assessed as paw swelling at 100 mg/kg, sc administered 30 min prior to carrageenan injection measured after 180 min (reference value: 51.0 +/-3.0 x10'-2 mm)
Type: functional
Conditions: route subcutaneous
Just the number in ×10⁻² mm, nothing appended.

Item: Cc1ccc(-c2cc(C(=O)Oc3ccc(C(C)C)cc3)nn2Cc2ccccc2)cc1 | System: Mus musculus | Activity: 42

Noted Activity for Cc1ccc(-c2cc(C(=O)Oc3ccc(C(C)C)cc3)n(Cc3ccccc3)n2)cc1 , tested on Mus musculus: 39

Here Cc1ccc(-c2cc(C(=O)N3CCN(Cc4ccc(C(C)C)cc4)CC3)n(Cc3ccccc3)n2)cc1 was tested on Mus musculus, and its Activity came to 49

Activity value, target or system Mus musculus, for Cc1ccc(-c2cc(C(=O)Oc3ccc(-n4ccnc4)cc3)n(Cc3ccccc3)n2)cc1 : 43

Result for Cc1ccc(-c2cc(C(=O)Oc3ccc(Oc4ccc(C(F)(F)F)cc4)cc3)n(Cc3ccccc3)n2)cc1 , tested on Mus musculus, Activity: 43

Tested on Mus musculus: CCOC(=O)C1CCN(C(=O)c2cc(-c3ccc(C)cc3)nn2Cc2ccccc2)CC1 . Observed Activity: 34

Activity for Mus musculus with input Cc1ccc(-c2cc(C(=O)N3CCN(Cc4ccc(C(C)C)cc4)CC3)nn2Cc2ccccc2)cc1 equals 28

Activity value, target or system Mus musculus, for Cc1ccc(-c2cc(C(=O)Oc3ccc(C(C)(C)C)cc3)nn2Cc2ccccc2)cc1 : 37

All values here come from ChEMBL document CHEMBL3045001.
